Each recorded value in this set is attributed to ChEMBL document CHEMBL5329208.

# microsomal CLint listing for each entry below
assay: Metabolic stability in human liver microsome assessed as intrinsic clearance preincubated for 10 mins followed by NADPH addition and measured after 60 mins by LC-MS/MS analysis; format: ADME; conditions: liver microsomes, time 70 min, read-out: CLH
ENDPOINT: microsomal CLint

CCOC(=O)C1=C(CN2CCN(C(/C=C/c3ccccc3)C(=O)O)CC2)NC(c2nccs2)=NC1c1ccc(F)cc1Br (stereo not given); 14.8 µL/min/mg
CCOC(=O)C1=C(CN2CCOCC2)NC(c2nccs2)=NC1c1ccc(F)cc1Br (stereo not given); 663 µL/min/mg
O=C(O)Cc1ccccc1Nc1c(Cl)cccc1Cl; 235 µL/min/mg
CCOC(=O)C1=C(CN2CCN(C(C(=O)O)c3cccc([N+](=O)[O-])c3)CC2)NC(c2nccs2)=NC1c1ccc(F)cc1Br (stereo not given); 12.8 µL/min/mg
C[C@]12CC[C@H]3[C@@H](CCC4=CC(=O)CC[C@@]43C)[C@@H]1CC[C@@H]2O; 130 µL/min/mg
